Below, each entry is listed alongside its reported normalized growth.
Assay: chemical genetic growth profiling, strain panel (AID 1159580);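 note: tested at 20 µM; growth read once vehicle control cultures reached saturation at 30 °C; 1 = growth at the plate median or of vehicle wells; lower values mean less growth of the strain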
Conditions: S. cerevisiae deletion strains, growth OD, locus YOR290C, strain snf2, active compounds read low
Among all 5,500 compounds or so, about 2,000 (36%) were called active. About 18% were inconclusive and are not listed. This is one part of the list.
attribute measured: normalized growth

| compound | quantitative readout |
| --- | --- |
| C[C@@H](N)CO | 0.984 |
| CN1CCCC(n2nc(Cc3ccc(Cl)cc3)c3ccccc3c2=O)CC1 (configuration not stated) | 1.01 |
| OCCN(CCO)c1nc(N2CCCCC2)c2nc(N(CCO)CCO)nc(N3CCCCC3)c2n1 | 0.931 |
| N=c1nc(N2CCCCC2)cc(N)n1O | 0.896 |
| CCCCCC(C)N (configuration not stated) | 1.02 |
| COc1ccc(C[C@H]2NC[C@H](O)[C@H]2OC(C)=O)cc1 | 0.763 |
| CCSC(=N)N | 0.96 |

###

Experiment: chemical genetic growth profiling, strain panel (AID 1159580);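 note: tested at 20 µM; growth read once vehicle control cultures reached saturation at 30 °C; 1 = growth at the plate median or of vehicle wells; lower values mean less growth of the strain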
Conditions: S. cerevisiae deletion strains, growth OD, locus YJL092W, strain hpr5, active compounds read low
Among all 5,500 compounds or so, about 2,000 (36%) were called active. Roughly 18% stayed inconclusive and do not appear here. This is one part of the list.

| compound | normalized growth |
| --- | --- |
| Cc1cc(=O)c2c(O)c(C)c(O)cc2o1 | 1.02 |
| CNc1ccccc1C(=O)N1CCc2c([nH]c3ccccc23)C1=O | 0.991 |
| CC(=O)OC1CC23CC24CCC(OC2OCC(O)C(O)C2O)C(C)(C)C4CCC3C2(C)CC3OC4(CC(C)C3C12C)OC(O)C1(C)OC41 (centres undefined) | 1.02 |
| COc1ccc(C2CC(=O)c3ccc(OC)cc3O2)cc1 (centres undefined) | 0.957 |
| CCCCCCCC/C=C/CCCCCCCCOP(=O)([O-])OCC[N+](C)(C)C | 0.0556 |
| COc1c(O)cc2oc3cc(O)c(CC=C(C)C)c(O)c3c(=O)c2c1CC=C(C)C | 1 |
| C[C@@H]1O[C@@H](O[C@H]2[C@@H](Oc3cc(O)c4c(c3)O[C@H](c3ccc(O)cc3)CC4=O)O[C@H](CO)[C@@H](O)[C@@H]2O)[C@H](O)[C@H](O)[C@H]1O | 0.967 |
| CC(C)(C)CC(C)(C)c1ccc(OCCOCC[N+](C)(C)Cc2ccccc2)cc1 | 0.0645 |
| CC(C)[C@H](N)C(=O)OCCOCn1cnc2c(=O)[nH]c(N)nc21 | 1.01 |
| N=c1nc(N2CCCCC2)cc(N)n1O | 0.988 |
| CC1(C)S[C@@H]2[C@H](NC(=O)[C@H](NC(=O)N3CCNC3=O)c3ccccc3)C(=O)N2C1C(=O)O (some centres undefined) | 0.988 |
| C=C1CC[C@H](O)C/C1=C/C=C1\CCC[C@]2(C)C([C@H](C)/C=C/[C@H](C)C(C)C)CC[C@@H]12 (some centres undefined) | 1.02 |
| O=C(/C=C/c1ccccc1)O[C@H]1C[C@@H](O)[C@]2(O)C=CO[C@@H](O[C@@H]3O[C@H](CO)[C@@H](O)[C@H](O)[C@H]3O)[C@H]12 | 1.02 |
| O=C1CC(c2ccc(O)c(O)c2)Oc2cc(O)cc(O)c21 (centres undefined) | 1 |
| C=CC1=C(C(=O)O)N2C(=O)[C@@H](NC(=O)/C(=N/O)c3csc(N)n3)[C@H]2SC1 | 1.02 |
| NC(=O)N1c2ccccc2CC(=O)c2ccccc21 | 0.995 |
| COc1ccc([C@@H]2CC(=O)c3c(O)cc(O)cc3O2)cc1O | 0.976 |
| O=C1C[C@@H](c2ccc(O)cc2)Oc2cc(O)cc(O)c21 | 0.977 |
| O=[N+]([O-])O[C@H]1CO[C@H]2[C@@H]1OC[C@H]2O[N+](=O)[O-] | 0.999 |
